System: Bacillus subtilis
Assay: Displacement of imidazole from Bacillus subtilis NOS in presence of 50 uM H4B
endpoint: Ks (µM)
Report the value in µM with no unit label.

Inquiry: // query Ks value for entry `CNc1cc(C)cc(CCc2cc(C#N)cc(CCc3cc(C)cc(N)n3)c2)n1`
Reply text: 19

Inquiry: // query Ks value for entry `Cc1cc(N)nc(CCc2cc(CN)cc(CCc3cc(C)cc(N)n3)c2)c1`
Reply text: 47

Inquiry: // query Ks value for entry `Cc1cc(N)nc(CCc2cc(N)cc(CCc3cc(C)cc(N)n3)c2)c1`
Reply text: 1.9

Inquiry: // query Ks value for entry `N=C(NO)NCCC[C@H](N)C(=O)O`
Reply text: 1.9

Inquiry: // query Ks value for entry `Cc1cc(N)nc(CCc2cc(CN)cc(CCc3ccc4cc[nH]c4n3)c2)c1`
Reply text: 12

Inquiry: // query Ks value for entry `Cc1cc(N)nc(CCc2cc(CCCN)cc(CCc3cc(C)cc(N)n3)c2)c1`
Reply text: 19
